These entries and their values trace back to ChEMBL document CHEMBL4414571.

System: Candida albicans
ASSAY_TEXT: Antifungal activity against Candida albicans ATCC 10231 by NCCLS-protocol based microplate reader analysis
Assay type: functional
ENDPOINT_LABEL: MIC (µM)

(P) CO[C@@H]1[C@@H](C)O[C@@H](OC[C@@]23C[C@@H]4[C@H](C)CC[C@H]4[C@@]4(C(=O)O)C[C@@H]2C=C(C(C)C)[C@@]34C(=O)O)[C@@H](O)[C@@]12OC(=O)[C@H](CCCCCCCC(=O)O)O2
(Q) COC(=O)CCC[C@@H]1O[C@@]2(OC1=O)[C@H](O)[C@H](OC[C@@]13C[C@@H]4[C@H](C)CC[C@H]4[C@@]4(C=O)C[C@@H]1C=C(C(C)C)[C@@]34C(=O)O)O[C@H](C)[C@H]2OC
In the pair P and Q , the larger recorded MIC belongs to which? API: response body contains the label of the selected item.
P

###

System: Candida albicans
ASSAY_TEXT: Antifungal activity against Candida albicans ATCC 10231 by NCCLS-protocol based microplate reader analysis
Format: functional
ENDPOINT_LABEL: MIC (µM)

Worked examples, 2 compounds total:
# COMPOUND, MIC / µM
data = [
    ("CC(C)C1=C[C@H]2C[C@]3(C=O)[C@@H]4CC[C@@H](C)[C@H]4C[C@@]2(CO)[C@]13C(=O)O", 18),
    ("COC(=O)Nc1nc2ccccc2[nH]1 [CARBENDAZIM]", 0.16),
]

(1) COC(=O)CCCCCCC[C@@H]1O[C@@]2(OC1=O)[C@H](O)[C@H](OC[C@@]13C[C@@H]4[C@H](C)CC[C@H]4[C@@]4(C(=O)O)C[C@@H]1C=C(C(C)C)[C@@]34C(=O)O)O[C@H](C)[C@H]2OC
(2) CO[C@@H]1[C@@H](C)O[C@@H](OC[C@@]23C[C@@H]4[C@H](C)CC[C@H]4[C@@]4(C=O)C[C@@H]2C=C(C(C)C)[C@@]34C(=O)O)[C@@H](O)[C@@]12OC(=O)[C@H](CCCCCC(=O)O)O2
(3) COC(=O)CCCCCCC[C@@H]1O[C@@]2(OC1=O)[C@H](O)[C@H](OC[C@@]13C[C@@H]4[C@H](C)CC[C@H]4[C@@]4(C=O)C[C@@H]1C=C(C(C)C)[C@@]34C(=O)O)O[C@H](C)[C@H]2OC
// sort entries: MIC, high to low Order the labels as requested and give them as your answer.
1, 2, 3
